target: Phosphodiesterase 3 (Homo sapiens, UniProt Q14432+Q13370); test: In vitro inhibition of cyclic AMP phosphodiesterase from human platelets.
parameter: IC50 (µM)

Example molecules with recorded IC50:
> print(dat)
                                        mol  parameter  measurement.unit  assay.value
1  CN(C(=O)CCCOc1ccc2c(c1)CNC(=O)N2)C1CCCCC1       IC50                µM          1.3
2  CN(C(=O)CCCOc1ccc2c(c1)COC(=O)N2)C1CCCCC1       IC50                µM         1.15

a. CN(C(=O)CCCOc1ccc2[nH]c(=O)[nH]c(=O)c2c1)C1CCCCC1
b. COc1ccc2c(c1)COC(=O)N2
Lowest IC50? choose a or b Respond with the label that goes with your answer.
a
